src = ChEMBL document CHEMBL1201862

# System: 786-0
# procedure-summary: NCI tumour cell line growth inhibition, 48 h
The source made the active and inactive calls. Rule as the data show it: active = GI50 up to about 1.1 µM and inactive = higher. Where a SMILES comes first, the peptide text is derived from it. The star is where a group is joined. Boc = CC(C)(C)OC(=O)*
experimental-readout: GI50

[
  {
    "compound": "N#C/C(N)=N/c1ccccc1",
    "result": "> 100 µM (inactive)"
  },
  {
    "compound": "CCOC(=O)[C@H]1C[C@]23CN(C(=O)OC(C)(C)C)CC[C@H]2CCC2(SCCCS2)[C@@H]3N1C",
    "result": "34.5 µM (inactive)"
  },
  {
    "compound": "C[Si](C)(C)CN1C(=O)c2ccccc2C1(O)c1ccccc1 (stereo not drawn)",
    "result": "> 100 µM (inactive)"
  },
  {
    "compound": "COC1OC(CBr)C(OC(=O)c2ccccc2)C(O)C1Br (stereo not drawn)",
    "result": "> 100 µM (inactive)"
  },
  {
    "compound": "CC1C2=C(CCCC2=O)N(c2ccc(Cl)cc2)C2=C1C(=O)CCC2",
    "result": "> 100 µM (inactive)"
  },
  {
    "compound": "O=c1nc(NC(c2ccccc2)(c2ccccc2)c2ccccc2)ccn1CCO",
    "result": "> 100 µM (inactive)"
  },
  {
    "compound": "O=[N+]([O-])C1C2C=CC(C2)[C@H]1c1ccccc1Cl (stereo partly drawn)",
    "result": "> 100 µM (inactive)"
  },
  {
    "compound": "CN1c2ccccc2N(C)C2C1N(C)c1ccccc1N2C (stereo not drawn)",
    "result": "32.9 µM (inactive)"
  },
  {
    "compound": "CSC(=O)c1sc(SC)[n+](-c2ccccc2)c1O",
    "result": "17.9 µM (inactive)"
  },
  {
    "compound": "COc1nc(=O)n(COC(CO)CN2C(=O)c3ccccc3C2=O)cc1Cc1cccc(OCc2ccccc2)c1 (stereo not drawn)",
    "result": "> 10 µM (inactive)"
  }
]

Given item CCOC(=O)c1cc(/C=C/C(C)=C/C(=O)OC)n(C)c1C , the value recorded as its GI50 is > 100 µM (inactive)

Consider CNC(=O)CNC(=O)C(NC(=O)CNC(=O)C1CCCN1C(=O)C(C)NC(=O)C(NC(=O)OC(C)(C)C)C(C)C)C(C)C (stereo not drawn) (Boc-VAPGVG-NHMe; configuration not given here) . Its measured GI50 is > 100 µM (inactive)

GI50 recorded for this compound, O=C1CCCC(=O)N1CCc1c[nH]c2ccccc12 , is > 100 µM (inactive)

Lab note: measured GI50 of Nc1nc2c(=O)c3ccccc3sc2s1 was 34.7 µM (inactive)

Looking up CCOC(=O)CCSc1nc2ccc(I)cc2c(=O)n1Cc1ccccc1 , I see its GI50 listed as 25.6 µM (inactive)

// GI50 value for CN(C(=N)c1ccccc1)c1ccccc1 : > 100 µM (inactive)

Record COc1ccccc1C1C(Cl)C(=O)N1n1cnc2ccccc2c1=O (stereo not drawn) . Reported GI50: > 100 µM (inactive)

Please fill in: GI50 reported for C[N+]1(C)C2CC(OC(=O)C(CO)c3ccccc3)CC1C1OC12 (stereo not drawn) = > 100 µM (inactive)

Documented GI50 of CCOP(=O)(/C=C\n1cc(C)c(=O)[nH]c1=O)OCC : > 100 µM (inactive)

GET /value?item= CSc1ncnc2c1cnn2CCCCO &field=GI50 returns > 100 µM (inactive)

====

# System: HCT-116
# procedure-summary: NCI tumour cell line growth inhibition, 48 h
The source made the active and inactive calls. No stated cut-off is given here; in the data, active = GI50 up to about 1.1 µM and inactive = higher.
Lab note: assign the record to one of active, inactive

Illustrative cases are given below, each with its answer.
[
  {
    "molecule": "CCN(CC)c1ccc2cc3ccc(N(CC)CC)cc3[o+]c2c1",
    "class": "active"
  },
  {
    "molecule": "C[N+](C)(C)CC(=O)N/N=C(/Cc1cc(=O)oc2cc(O)ccc12)C(=O)Nc1ccc(Cl)cc1",
    "class": "inactive"
  },
  {
    "molecule": "O=C(O)C1Cc2ccccc2OC1=O (stereo unspecified)",
    "class": "inactive"
  },
  {
    "molecule": "O=C(/C=C/C=C/c1ccccc1)CCc1ccccc1",
    "class": "inactive"
  },
  {
    "molecule": "CN(C)c1ccc(C(=C2C=CC(=[N+](C)C)C=C2)c2c(O)c(S(=O)(=O)[O-])cc3cc(S(=O)(=O)O)ccc23)cc1",
    "class": "inactive"
  }
]

For CC12CCC(=O)N1[C@@H](c1ccccc1)[C@@H](c1ccccc1)O2 (stereo partly specified) , which call appears in the assay record?
inactive

Status in this test for CCCCCCCCCCCCCP(=O)(OC)OC ?
inactive

Tell me the recorded outcome of this test for Oc1ccc(-c2cc(-c3c(O)cc(O)cc3O)on2)cc1 .
inactive

Please let me know the test result on file for Cc1nc(C(N)=S)sc1C(=O)CC(=O)C(=O)Nc1ccccc1[N+](=O)[O-] .
inactive

Hi, do you know how CC1(O)OC(=O)C2=C1CCC1C2CCC2(C)C(O)CCC12 (stereo unspecified) came out in this test?
inactive

What call does the record list for c1ccc(CSc2ccccc2CN2CCN(Cc3ccccc3SCc3ccccc3)CCN(Cc3ccccc3SCc3ccccc3)CC2)cc1 ?
active

Check the results log: what was the call for N=C(N)N/N=C/c1c(Cl)nc2sccn12 ?
inactive

====

Listing of recorded GI50 by entry.
# Test system: HCT-116
# procedure-summary: NCI tumour cell line growth inhibition, 48 h
Activity calls are given as the source filed them. No stated cut-off is given here; in the data, active = GI50 up to about 1.1 µM and inactive = higher.

Some solved cases for reference:
[
  {
    "compound": "NCCSSCc1ccccc1CSSCCN",
    "result": "> 100 µM (inactive)"
  },
  {
    "compound": "CSC1=N/C(=C\\c2ccco2)C(=O)N1CN1CCCCC1",
    "result": "50.4 µM (inactive)"
  }
]

Then there is this compound:
GI50 recorded for this compound, CC(C)(C)N1NC1C1NN1C(C)(C)C (stereo not drawn) , is > 100 µM (inactive)

====

# System: MOLT-4
# procedure-summary: NCI tumour cell line growth inhibition, 48 h
Active and inactive are the calls of the source. No stated cut-off is given here; in the data, active = GI50 up to about 1.1 µM and inactive = higher.
experimental-readout: GI50

[
  {
    "smiles-entry": "C=C1C(=O)O[C@@H]2C(=O)[C@@H](C)CCC/C(C)=C/CC[C@@]3(C)O[C@@H]3C[C@@H]12",
    "experimental-system": "MOLT-4",
    "GI50": "28.6 µM (inactive)"
  },
  {
    "smiles-entry": "CC(=O)Nc1ccc2cc(C#N)c(=O)[nH]c2n1",
    "experimental-system": "MOLT-4",
    "GI50": "> 100 µM (inactive)"
  },
  {
    "smiles-entry": "Cn1c(-c2ccc[se]2)ccc1-c1ccc(CO)[se]1",
    "experimental-system": "MOLT-4",
    "GI50": "21.1 µM (inactive)"
  },
  {
    "smiles-entry": "Cn1cnc([N+](=O)[O-])c1Sc1nnc(-c2cccnc2)n1C",
    "experimental-system": "MOLT-4",
    "GI50": "18.2 µM (inactive)"
  }
]

Here's the next entry for you.
CSc1csc(-c2ccc(-c3ccc(-c4cc(SC)cs4)s3)s2)c1 yielded GI50 of > 100 µM (inactive)

====

# System: PC-3
# procedure-summary: NCI tumour cell line growth inhibition, 48 h
Activity calls are given as the source filed them. Cut-off read from the data, not from the text of the source: active = GI50 up to about 1.1 µM and inactive = higher.
experimental-readout: GI50

Field: example entries. Status: answers known.
[
  {
    "compound": "NC(=O)CO/N=C1/C(=C2/C(=O)Nc3ccccc32)Nc2ccccc21",
    "GI50": "> 100 µM (inactive)"
  },
  {
    "compound": "O=C1C2=Cc3ccccc3OC2(O)Oc2cc(O)cc(O)c21 (stereo not given)",
    "GI50": "> 100 µM (inactive)"
  },
  {
    "compound": "Cc1ccc(/C=C2\\CCCc3ccccc3C2=O)cc1",
    "GI50": "14.7 µM (inactive)"
  },
  {
    "compound": "CC(=O)c1cc(CC2Cc3cc4c(cc3C2=O)CCC4)cc2c1CCC2 (stereo not given)",
    "GI50": "10.1 µM (inactive)"
  },
  {
    "compound": "CN(C)c1ccc(/C=C2\\C[C@H]3[C@@H]4CC=C5C[C@@H](N6CCCC6)CC[C@]5(C)[C@H]4CC[C@]3(C)[C@H]2O)cc1",
    "GI50": "2.18 µM (inactive)"
  }
]

// GI50 lookup, compound = CCc1c(N=[N+]=[N-])c2ccccc2oc1=O , result: > 100 µM (inactive)

CN(C)CC1CCCC(CN2CCCCC2)C1=O (stereo not given) yielded GI50 of 15.6 µM (inactive)

Sure, the documented GI50 for O=C(O)C1(C(O)c2ccccc2)SCCCS1 (stereo not given) is > 10 µM (inactive)

# GI50 (compound: O=C(/C=C/c1ccc(OCc2cccc(Cl)c2)cc1)NO ) is 12.6 µM (inactive)

Looking up CN(C)c1ccc(C(=C2C=CC(=[N+](C)C)C=C2)c2c(O)c(S(=O)(=O)[O-])cc3cc(S(=O)(=O)O)ccc23)cc1 , I found its GI50 recorded as > 100 µM (inactive)
